Assay: label from the status in PepcDB records
PARAMETER_MEASURED: protein production

# example entries with known answers
MIFIKKPSLKALSCASILFALSGCVPPNQFGEDYSRDVCKTKRDELIALDNHFSSNMVAGGIIGTLAGAGLGAAAAAATNGDIITATLIGAAAGMAVGAGSAYWNELSKQHGEGELLLFSLLGDMRRDEEKVTKAQIALDNLMSCRRTEAAQVHADYRAKRISAQEAKTRMEAIRRRAEKDVSVAKDINKGVQDRRGSYEYAFEQSKKIKTKNKKDKKKIEKTYTSMDKYCGSYNTSVQVAETSLNTEFKADGFTSSYLIYPDSTPNTQISCR ... failed
MAFAPRYSSLIPCALALAASLAGTPDGARAQAPDGPKHPLEKPLAHPPAPPEKLPRVPTDRTKGLDFLFGALKAAPDETSAKHVEGRIWALWSQTTSDTTALLMARSKVAMDAKQFDVALKLLDAVVKLKPDYVEGWNRRATIYYLQNDYMHSLEDIEQVLAREPRHFGALAGLGMIMQELGDDKRALDAFRRALALNPHLDKVPDLVKTLSEKVEGRDI ... failed
MLPLNDYLQPFGLVIKPMQEDLTPYLGIKVKSEAGQEKITFVAAHSPAAMAGISPQDLLLAINGVRVGAEQLSLRLKDYQANDMIQLTVFHQDLLRTVDVVLASPQANRYEVVPIADPSDSQLEHHHHHH ... not failed
MGRTPETHVIDFRAAEQLLAARDPRGAVKLLDPVIAAHPENTAARLLRARAFFAAAQLRPAELEFTIVLEREPDNAFAHFALARTYERQLRPDQAKRHFRLAAALDPNPQYLKAARLEHHHHHH ... not failed
PETYGRLVEPTTLKIERLLPGPIERVWAYLTQSDLRRRWLASGEMRLAPDAPFELVWRNDELSDPPGHRPEGFSEEEKMASRIITVVPPHHLVFSWGESGEVSIELQALGKDVLLTLIHRRLVGRKTKLDVSAGWHVHLDILAARLQEKEPAPFWDTWLALKEEYEPR ... failed

List reported protein production for each of these sequences:
1. MTMIEPDPADFEPIHPYSLARISHVALQAGAVLAQSGASVRVVHEGARMVAEGLGVEVLGMRSGYASFEITLARGHHSFTRMTQIGPHGVNHRLDFAVRDLLKRAARGDMTPDAIEAELKRLQSETPRHPPWLVAIATGAACAAFGRLLGSDWLSFGPVLAAASIGQGVRHLLLGRRFNVFVVAAIVGCISAALGGLGARLIGSSTTELAMMASILLLVPGVPSTNAQTDVMDGYPTMGSARAVTVIMIMVFAVTGLWLAEFVLRIHT
2. MPIGFLRSLTARHRNPVSNRRLARVLCFVAGAANAGGFLAVQQYTSHMSGIVSAIADDLVLQRYGLVVHGIGALASFLAGAGTTAILVNWARRARLRSEYAIPLLVEATLLLCFGLLGSHLNDMDWLFVPATVMLLCFMMGLQNALITKLSNAEIRTTHVTGMVTDIGIELGKLFYWNAAVRPNSRPVMADRHKLRLLTVLVGMFLVGGIVGAQAFSTLGYAATLPLAALLLIVAIIPVADDLLTRLLLRVHRADSARRARRWGARGR

Response line:
failed
failed
